Tested on: VERO cells
Assay: MTT reduction viability assay on VERO cells
Assay type: cell-based
Settings: Chlorocebus sabaeus, 24 hours exposure, mean ± SD
Description: The effect of the drugs on parasite viability was evaluated using the tetrazolium salt (MTT) reduction assay. […] Alternatively, VERO cells attached to the surface of 96-well plates were washed and incubated with MTT (5 mg/mL). […] The plates were then incubated overnight at 37°C, and the optical density (OD) was determined using a microplate reader (Labsystems Multiskan MS, Finland) at 570 nm. […] The data are expressed as the mean ± DS of the EC50s obtained from each experiment.
Reported values of pEC50 for individual entries
pEC50 (log units): -log10 of the concentration in mol/L.

structure_notation=O=C(OCCCCCCCCCCCC[P+](c1ccccc1)(c1ccccc1)c1ccccc1)c1cc(O)c(O)c(O)c1.[Br-] experimental_value=4.96

Now take the following compound into account.
response.value for O=C(OCCCCCCCCCC[P+](c1ccccc1)(c1ccccc1)c1ccccc1)c1cc(O)c(O)c(O)c1.[Br-] (field: pEC50) = 4.95
